Reported activation values follow for various compounds
Biological target: Mucolipin-1 (Homo sapiens)
Assay: qHTS for Agonists of the Human Mucolipin Transient Receptor Potential 1 (TRPML1); further: 0% is about no effect
Settings: TRPML1-expressing cells, Ca2+ dye fluorescence, FDSS; stronger effect = higher value
Out of some 410,000 compounds screened, about 480 (0.12%) were called active. For the sample, actives were picked, then their nearest neighbours and some compounds at random.
Entry rule: numbers only, all in %.

The cases that follow already have their activation on record.
{"smiles_notation": "Cc1c(CCO)sc[n+]1CC(=O)c1ccc2ccccc2c1", "display_unit": "%", "activation": -0.38}
{"smiles_notation": "Cc1csc(NCC(=O)c2c[nH]c3ccccc23)n1", "display_unit": "%", "activation": -0.545}

Ask: Record request: activation value, item COC(=O)C1=C(c2ccccc2)c2ccccc2S(=O)(=O)N1CC(=O)Nc1ccccc1C(F)(F)F
Result: 1.11

Ask: Record request: activation value, item Nc1c(C(=O)c2cccs2)sc2nsc(SCCN3CCCCC3)c12
Result: 56.3

Ask: Record request: activation value, item COc1ccccc1CNc1nccn(-c2ccc(F)cc2)c1=O
Result: 0.564

Ask: Record request: activation value, item CN(C)c1ccc(/C=C/c2c3ccccc3nc3ccccc23)cc1
Result: 0.354
